// provenance: PubChem BioAssay (NCATS)

Biological target: Nucleoprotein (Lymphocytic choriomeningitis virus (strain Armstrong)) (UniProt P09992)
Sequence (P09992 whole entry, looked up): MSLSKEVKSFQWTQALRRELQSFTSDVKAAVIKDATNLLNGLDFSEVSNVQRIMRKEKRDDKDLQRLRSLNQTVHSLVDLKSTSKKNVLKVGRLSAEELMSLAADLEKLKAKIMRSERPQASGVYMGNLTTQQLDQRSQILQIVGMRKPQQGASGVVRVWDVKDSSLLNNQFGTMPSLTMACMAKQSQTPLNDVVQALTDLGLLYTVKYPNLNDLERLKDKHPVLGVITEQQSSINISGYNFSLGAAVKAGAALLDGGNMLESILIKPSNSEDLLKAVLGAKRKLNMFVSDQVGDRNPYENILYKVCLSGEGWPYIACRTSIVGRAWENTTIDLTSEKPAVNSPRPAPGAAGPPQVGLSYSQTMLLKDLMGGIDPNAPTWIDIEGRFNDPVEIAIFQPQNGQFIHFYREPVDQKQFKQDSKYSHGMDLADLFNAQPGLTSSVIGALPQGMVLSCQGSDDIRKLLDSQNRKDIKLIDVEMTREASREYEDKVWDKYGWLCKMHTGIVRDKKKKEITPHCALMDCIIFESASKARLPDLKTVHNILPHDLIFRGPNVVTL
Assay: qHTS for Inhibitors of the Functional Ribonucleoprotein Complex (vRNP) of Lymphocytic Choriomeningitis Arenaviruses (LCMV): LCMV Primary Screen - GLuc reporter signal (AID 1347086); also: nearly all actives have a fitted effect of over 70% in size
Conditions: LCMV minigenome vRNP cell assay, Gaussia luciferase reporter; series mostly up to 57.5 µM
Records with an inconclusive call do not appear. Active and inactive are the calls of the source. Calls follow the shape of the full dose curve.
Possible outcomes: active, inactive

[[record]]
compound = "NC(=O)c1ccccc1"
classification = "inactive"

[[record]]
compound = "CCOC(=O)[C@@H](N)Cc1ccc(-c2cc(O[C@H](c3ccc(Cl)cc3-n3ccc(C)n3)C(F)(F)F)nc(N)n2)cc1"
classification = "inactive"

[[record]]
compound = "CCCCCNC(=O)N1CCC(CN(Cc2ccc(Cl)cc2)Cc2ccc([N+](=O)[O-])s2)C1 (configuration not stated)"
classification = "inactive"

[[record]]
compound = "O=[N+]([O-])c1cccc2cn[nH]c12"
classification = "inactive"

[[record]]
compound = "O=C(Nc1cccc(C(F)(F)F)c1)Nc1cc(S(=O)(=O)NC2CC2)ccc1-c1ccsc1"
classification = "inactive"

[[record]]
compound = "CO[C@H]1/C=C\\O[C@@]2(C)Oc3c(C)c(O)c4c(O)c(c5c(nc6cc(C)ccn65)c4c3C2=O)NC(=O)C(C)=CC=C[C@H](C)[C@H](O)[C@@H](C)[C@@H](O)[C@@H](C)[C@H](OC(C)=O)[C@H]1C"
classification = "inactive"

[[record]]
compound = "C=CCc1ccc(O)c(-c2ccc(O)c(CC=C)c2)c1"
classification = "inactive"

[[record]]
compound = "Cc1ccc(C(C)(O)c2nc3ccccc3s2)c(C)c1 (configuration not stated)"
classification = "inactive"

[[record]]
compound = "CNc1nc(Nc2ccc(C(=O)N3CCOCC3)cc2OC)ncc1Cl"
classification = "inactive"

[[record]]
compound = "CN(C)CCC(c1ccc(Br)cc1)c1ccccn1 (configuration not stated)"
classification = "inactive"

[[record]]
compound = "CO[C@H]1C=CO[C@@]2(C)Oc3c(C)c(O)c4c(O)c(c5c(c4c3C2=O)NC2(CCN(CC(C)C)CC2)N=5)=NC(=O)C(C)=CC=C[C@H](C)[C@H](O)[C@@H](C)[C@@H](O)[C@@H](C)[C@H](OC(C)=O)[C@H]1C"
classification = "inactive"

[[record]]
compound = "NCC(O)C1CCCCCCC1 (configuration not stated)"
classification = "inactive"

[[record]]
compound = "Cc1ccccc1C(=O)c1ccc(Nc2ccc(Br)cc2N)cc1Cl"
classification = "inactive"

[[record]]
compound = "C=C1[C@H]2O[C@H]2[C@@H](OC(C)=O)[C@@]2(C)[C@@H](OC(C)=O)C[C@@H](OC(C)=O)[C@@](C)(O)[C@@H]2[C@@H](OC(C)=O)[C@@]2(O)[C@@H](C)C(=O)O[C@H]2[C@H]1Cl"
classification = "inactive"

[[record]]
compound = "C[C@@H]1CC2OC(=O)[C@@]3(C)C(=O)CC[C@@](C)(C23)[C@@]1(O)CCc1ccoc1 (some centres not stated)"
classification = "inactive"

[[record]]
compound = "Nc1ncnc2c1c(-c1cccc(OCc3ccccc3)c1)cn2C1CC(CN2CCC2)C1 (configuration not stated)"
classification = "inactive"

[[record]]
compound = "Cc1c(CN2CCN(S(C)(=O)=O)CC2)sc2c(N3CCOCC3)nc(-c3cnc(N)nc3)nc12"
classification = "active"

[[record]]
compound = "CC(=O)N[C@H](C(=O)O)C(C)(C)SN=O"
classification = "inactive"

[[record]]
compound = "C[C@@H]1CN(Cc2ccc(F)cc2)[C@@H](C)CN1C(=O)c1cc2c(C(=O)C(=O)N(C)C)cn(C)c2cc1Cl"
classification = "active"

[[record]]
compound = "CC(=O)N[C@H]1[C@@H]([C@H](O)[C@H](O)CO)OC(C(=O)O)=C[C@@H]1N=C(N)N"
classification = "inactive"

[[record]]
compound = "CCCCCCCCCCCCCC/C(C(=O)O)=C(\\C)C(=O)O"
classification = "inactive"

[[record]]
compound = "C=O"
classification = "inactive"

[[record]]
compound = "CC1NC(C(=O)O)Cc2c1[nH]c1ccccc21 (configuration not stated)"
classification = "inactive"

[[record]]
compound = "CNC(=O)c1ccc(-c2cnc3ncc(Cc4ccc5ncccc5c4)n3n2)cc1F"
classification = "inactive"

[[record]]
compound = "C/C(=C/CCC(C)[C@H]1CC[C@@]2(C)C3=C(CC[C@]12C)[C@@]1(C)CCC(=O)C(C)(C)[C@@H]1CC3)C(=O)O (some centres not stated)"
classification = "inactive"

[[record]]
compound = "O=C(O)CC1CC(c2ccccc2)=NO1 (configuration not stated)"
classification = "inactive"

[[record]]
compound = "Cc1cncc2cccc(S(=O)(=O)N3CCCN(C(=O)CN)C[C@@H]3C)c12"
classification = "inactive"

[[record]]
compound = "Cc1ccccc1O"
classification = "inactive"

[[record]]
compound = "C=CC(=O)Nc1cc(NC(=O)c2ccc(C)c(NC(=O)c3ccno3)c2)cc(C(F)(F)F)c1"
classification = "inactive"

[[record]]
compound = "CCOC(=O)N1CCN([N+]([O-])=NOc2cc(ON=[N+]([O-])N3CCN(C(=O)OCC)CC3)c([N+](=O)[O-])cc2[N+](=O)[O-])CC1"
classification = "inactive"

[[record]]
compound = "COc1ccc(CCC(=O)c2c(O)cc(O[C@@H]3O[C@H](CO)[C@@H](O)[C@H](O)[C@@H]3O[C@@H]3O[C@@H](C)[C@H](O)[C@@H](O)[C@@H]3O)cc2O)cc1O"
classification = "active"

[[record]]
compound = "COC(=O)C1=C(C)NC(C)=C([N+](=O)[O-])C1c1ccccc1C(F)(F)F (configuration not stated)"
classification = "inactive"

[[record]]
compound = "Cn1c(=O)c(Oc2ccc(F)cc2F)cc2cnc(NC3CCOCC3)nc21"
classification = "inactive"

[[record]]
compound = "C=C[C@@H]1CN2CC[C@@H]1C[C@H]2[C@H](O)c1ccnc2ccc(OC)cc12"
classification = "inactive"

[[record]]
compound = "CCNC(=O)[C@H]1O[C@@H](n2cnc3c(N)nc(NCCc4ccc(CCC(=O)O)cc4)nc32)[C@H](O)[C@@H]1O"
classification = "inactive"

[[record]]
compound = "NS(=O)(=O)c1cccc2c1c([N+](=O)[O-])cc1nc(O)c(O)nc12"
classification = "inactive"

[[record]]
compound = "CC1=CC2=C(C=O)C(=O)C(C)(O)C(O)C2=CO1 (configuration not stated)"
classification = "inactive"


* * *

Tested on: Es-2
Test: Primary qHTS to identify gynecologic anti-cancer compounds using libraries of approved drugs and bioactive compounds (AID 1345084); also: nearly all actives have a fitted effect of over 55% in size; also: potency is read from the fitted curve at half-maximal effect
Details: Gynecologic cancer cell panel viability, ATPlite luminescence, 48 h; series mostly up to 57.5 µM
Records with an inconclusive call do not appear. Active and inactive are the calls of the source. Calls come from the whole dose curve; as a rule, active = well fitted cell-killing curve with a large enough effect; inconclusive = small, poorly fitted or top-dose-only effect, or effect the other way; inactive = flat fitted curve, though single readings scatter.
Assay Endpoint: Potency

[[record]]
compound = "CC1=CC2(O)/C=C/C(C)(O)C(O)C(O)/C=C/C(=O)OC23C(=O)NC(CC(C)C)C3C1C (configuration not stated)"
assay_endpoint = "Potency"
reported = "inactive"

[[record]]
compound = "C=CC/C=C\\C/C=C\\CCCCCCCc1cc(O)cc(O)c1"
assay_endpoint = "Potency"
reported = "inactive"

[[record]]
compound = "O=C(NCCN1CCC2(CC1)C(=O)NCN2c1cccc(F)c1)c1ccc2ccccc2c1"
assay_endpoint = "Potency"
reported = "inactive"

[[record]]
compound = "COc1ccc2[nH]c(-c3ccccc3)c(CCN(C)C)c2c1"
assay_endpoint = "Potency"
reported = "inactive"

[[record]]
compound = "O=C1N[C@@H](Cc2ccccc2)CN2CCCC[C@@H]12"
assay_endpoint = "Potency"
reported = "inactive"

[[record]]
compound = "CC1(C)C(=O)N(c2ccc(C#N)c(C(F)(F)F)c2)C(=O)N1CCCCO"
assay_endpoint = "Potency"
reported = "inactive"

[[record]]
compound = "COC1CC(O[C@H]2CC[C@]3(C)C4CC[C@]5(C)[C@@H](C6=CC(=O)OC6)[C@@H](OC(C)=O)C[C@]5(O)C4CC[C@@H]3C2)OC(C)C1O[C@@H]1O[C@H](CO)[C@@H](O)[C@H](O)[C@H]1O (some centres not stated)"
assay_endpoint = "Potency"
reported = "0.794 µM (active)"

[[record]]
compound = "CC1=CC2OC3CC(O)[C@](C)([C@@]2(C)C(O)C1=O)[C@]31CO1 (some centres not stated)"
assay_endpoint = "Potency"
reported = "8.91 µM (active)"

[[record]]
compound = "C=C1[C@@H](O)[C@]2(O)OC[C@]34C2[C@]2(C)C(C[C@H]3OC(=O)[C@H](O)[C@@]14O)C(C)=CC(=O)[C@H]2O (some centres not stated)"
assay_endpoint = "Potency"
reported = "inactive"

[[record]]
compound = "C[C@H]1O[C@@H](O[C@H]2CC[C@]3(CO)C4CC[C@]5(C)[C@@H](C6=CC(=O)OC6)CC[C@]5(O)[C@@H]4CC[C@H]3C2)[C@H](O)[C@H](O)[C@@H]1O[C@@H]1O[C@H](CO)[C@@H](O)[C@H](O)[C@H]1O (some centres not stated)"
assay_endpoint = "Potency"
reported = "3.55 µM (active)"

[[record]]
compound = "C[N@@+]1(CC2CC2)CC[C@]23c4c5ccc(O)c4O[C@H]2C(=O)CC[C@@]3(O)[C@H]1C5"
assay_endpoint = "Potency"
reported = "inactive"

[[record]]
compound = "C=C1[C@@H](C)C2[C@H](Cc3ccccc3)NC(=O)[C@@]23C(/C=C/C[C@H](C)C[C@@](C)(O)/C=C/[C@@H]3OC(C)=O)[C@@H]1O (some centres not stated)"
assay_endpoint = "Potency"
reported = "inactive"

[[record]]
compound = "c1cncc(OC[C@@H]2CCN2)c1"
assay_endpoint = "Potency"
reported = "inactive"

[[record]]
compound = "C=C[C@H]1CN2CCC1C[C@H]2[C@H](O)c1ccnc2ccccc12 (some centres not stated)"
assay_endpoint = "Potency"
reported = "inactive"

[[record]]
compound = "O=C(N[C@H]1CN2CCC1CC2)c1cc2cccc(Cl)c2s1"
assay_endpoint = "Potency"
reported = "inactive"

[[record]]
compound = "CCC1CC2CN3CCc4c([nH]c5ccccc45)C(C(=O)OC)(C2)C13 (configuration not stated)"
assay_endpoint = "Potency"
reported = "inactive"

[[record]]
compound = "C[C@H]1CN(CC[C@H](O)C2CCCCC2)CC[C@@]1(C)c1cccc(O)c1"
assay_endpoint = "Potency"
reported = "inactive"

